Recorded values, source ChEMBL document CHEMBL3046216.

System: Bacillus subtilis
EXPERIMENTAL_DETAILS: Antimicrobial activity against Bacillus subtilis ATCC 6633 assessed as growth inhibition after 24 hr by NCCLS broth dilution method
Assay type: functional
APPLIED_CONDITIONS: ATCC 6633, 24 h
RECORDED_METRIC: MIC (µg/mL)
Give bare numbers, in µg/mL.

Illustrative cases are given below, each with its answer.
S=C(Nc1ccccc1)Nc1ccc2ncnc(Sc3nnc(-c4cccnc4)o3)c2c1; 75
CN1CCN(c2cc3ncnc(Sc4nnc(-c5cccnc5)o4)c3cc2NC(=S)Nc2cccc(Cl)c2)CC1; 25
S=C(Nc1cccc(Cl)c1)Nc1ccc2ncnc(Sc3nnc(-c4cccnc4)o3)c2c1; 25
CC1COc2c(N3CCN(C)CC3)c(F)cc3c(=O)c(C(=O)O)cn1c23 (stereo not given); 0.125

Shift focus to the following entry.
Asked: Return value of MIC for input "Cc1cccc(NC(=O)Nc2cc3c(Sc4nnc(-c5cccnc5)o4)ncnc3cc2N2CCN(C)CC2)c1" , no commentary.
Given back: 25
